Provenance of the data: patent US20210230294A1

System tested: T1, recombinant human CD73 (SEQ ID NO:70) (human, UniProt P21589 27-549)
T1 construct: Soluble recombinant protein in normal SPR running buffer (open conformation), the soluble enzyme assay and HDX-MS; SPR stock bought from BPS Bioscience; also called rhuCD73; CD73 in the open conformation
T1 sequence: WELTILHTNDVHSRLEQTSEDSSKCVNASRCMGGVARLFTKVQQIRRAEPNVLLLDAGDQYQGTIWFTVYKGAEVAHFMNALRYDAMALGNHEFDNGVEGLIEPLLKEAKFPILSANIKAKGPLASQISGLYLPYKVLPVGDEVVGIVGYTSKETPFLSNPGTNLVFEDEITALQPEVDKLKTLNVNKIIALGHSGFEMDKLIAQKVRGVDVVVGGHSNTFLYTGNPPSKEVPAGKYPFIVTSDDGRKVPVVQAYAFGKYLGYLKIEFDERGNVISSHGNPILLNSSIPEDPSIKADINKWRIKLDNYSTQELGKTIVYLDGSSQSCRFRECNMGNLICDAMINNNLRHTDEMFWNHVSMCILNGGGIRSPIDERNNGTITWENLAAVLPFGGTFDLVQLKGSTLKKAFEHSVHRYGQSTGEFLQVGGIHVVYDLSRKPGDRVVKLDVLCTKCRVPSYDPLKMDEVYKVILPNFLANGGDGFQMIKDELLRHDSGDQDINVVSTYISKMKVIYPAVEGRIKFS
Measurement protocol: SPR (Biacore 8K), antibody captured on anti-human Fc, CD73 as analyte, open conformation
Description: The SPR running buffer (10 mM HEPES, 150 mM NaCl, 3 mM EDTA and 0.05% v/v Surfactant P20, pH 7.4) was prepared from 10×HBS-EP Buffer (GE Healthcare). Anti-human Fc antibodies (GE Healthcare) were immobilized via amine coupling on all sixteen flow cells of an S series sensor chip CM5 (GE Healthcare). The immobilization levels were ˜9000 RU for all flow cells. […]
Metric name: koff (s⁻¹)
The response must be a number in s⁻¹ with no trailing unit.

# Binder, Metric name, Reported result
data = [
    ("CL25_hu_9-6 (antibody, V domains shown, Humanized CL25 antibody) VH: QVQLVQSGAEVKKPGSSVKVSCKASGYTFTSYGLSWVRQAPGQGLEWMGEIYPGSGNTYYNEKFKGRVTITADESTSTAYMELSSLRSEDTAVYYCARYDYLGSSYGFDYWGAGTTVTVSS VL: AIRMTQSPSSFSASTGDRVTITCKASQDVSTAVAWYQQKPGKAPKLLIYSASYRYSGVPSRFSGSGSGTDFTLTISCLQSEDFATYYCQQHYNTPYTFGGGTKLEIK", "koff", 0.000953),
    ("CL25_hu_10-4 (antibody, V domains shown, Humanized CL25 antibody) VH: EVQLVQSGAEVKKPGESLKISCKGSGYTFTSYGLSWVRQMPGKGLEWMGEIYPGSGNTYYNEKFKGQVTISADKSISTAYLQWSSLKASDTAMYYCARYDYLGSSYGFDYWGAGTTVTVSS VL: DIQMTQSPSSLSASVGDRVTITCKASQDVSTAVAWYQQKPGKAPKLLLYSASYRYSGVPSRFSGSGSGTDYTLTISSLQPEDFATYYCQQHYNTPYTFGGGTKLEIK", "koff", 0.00107),
]

Prompt: Look up koff for this binder: CL25_hu_11-4 (antibody, V domains shown, Humanized CL25 antibody) VH: QVQLVQSGAEVKKPGASVKVSCKASGYTFTSYGLSWVRQATGQGLEWMGEIYPGSGNTYYNEKFKGRVTMTANTSISTAYMELSSLRSEDTAVYYCARYDYLGSSYGFDYWGAGTTVTVSS VL: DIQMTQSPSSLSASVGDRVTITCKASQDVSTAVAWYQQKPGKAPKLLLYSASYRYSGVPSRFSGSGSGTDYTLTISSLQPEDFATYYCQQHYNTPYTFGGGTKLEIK
Response: 0.00155

Prompt: Look up koff for this binder: CL25_hu_11-5 (antibody, V domains shown, Humanized CL25 antibody) VH: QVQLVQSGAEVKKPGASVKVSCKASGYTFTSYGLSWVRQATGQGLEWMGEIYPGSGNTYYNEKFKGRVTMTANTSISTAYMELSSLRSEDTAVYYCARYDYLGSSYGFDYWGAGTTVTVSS VL: DIVMTQSPDSLAVSLGERATINCKASQDVSTAVAWYQQKPGQPPKLLIYSASYRYSGVPDRFSGSGSGTDFTLTISSLQAEDVAVYYCQQHYNTPYTFGGGTKLEIK
Response: 0.00117

Prompt: Look up koff for this binder: CL25_hu_10-6 (antibody, V domains shown, Humanized CL25 antibody) VH: EVQLVQSGAEVKKPGESLKISCKGSGYTFTSYGLSWVRQMPGKGLEWMGEIYPGSGNTYYNEKFKGQVTISADKSISTAYLQWSSLKASDTAMYYCARYDYLGSSYGFDYWGAGTTVTVSS VL: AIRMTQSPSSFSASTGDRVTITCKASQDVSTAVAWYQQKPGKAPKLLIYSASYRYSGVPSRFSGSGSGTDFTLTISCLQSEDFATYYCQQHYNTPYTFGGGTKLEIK
Response: 0.00092

Prompt: Look up koff for this binder: CL25_hu_9-5 (antibody, V domains shown, Humanized CL25 antibody) VH: QVQLVQSGAEVKKPGSSVKVSCKASGYTFTSYGLSWVRQAPGQGLEWMGEIYPGSGNTYYNEKFKGRVTITADESTSTAYMELSSLRSEDTAVYYCARYDYLGSSYGFDYWGAGTTVTVSS VL: DIVMTQSPDSLAVSLGERATINCKASQDVSTAVAWYQQKPGQPPKLLIYSASYRYSGVPDRFSGSGSGTDFTLTISSLQAEDVAVYYCQQHYNTPYTFGGGTKLEIK
Response: 0.00114

Prompt: Look up koff for this binder: HzCL25 (antibody, human IgG1, kappa, N297A, V domains shown, Humanized IgG1/kappa with N297A; also called humanized CL25) VH: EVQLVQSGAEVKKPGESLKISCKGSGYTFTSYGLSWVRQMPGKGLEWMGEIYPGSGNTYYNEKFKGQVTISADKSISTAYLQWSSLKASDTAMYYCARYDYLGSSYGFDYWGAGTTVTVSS VL: DIVMTQSPDSLAVSLGERATINCKASQDVSTAVAWYQQKPGQPPKLLIYSASYRYSGVPDRFSGSGSGTDFTLTISSLQAEDVAVYYCQQHYNTPYTFGGGTKLEIKR
Response: 0.000449

Prompt: Look up koff for this binder: CL25_hu_9-4 (antibody, V domains shown, Humanized CL25 antibody) VH: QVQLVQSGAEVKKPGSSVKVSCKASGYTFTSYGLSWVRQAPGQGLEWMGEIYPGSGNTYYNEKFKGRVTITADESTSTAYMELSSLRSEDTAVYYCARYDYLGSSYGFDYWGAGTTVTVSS VL: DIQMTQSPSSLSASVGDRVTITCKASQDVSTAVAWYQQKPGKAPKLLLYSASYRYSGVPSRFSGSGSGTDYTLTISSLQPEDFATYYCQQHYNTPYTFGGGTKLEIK
Response: 0.00264

Prompt: Look up koff for this binder: CL25_hu_8-6 (antibody, V domains shown, Humanized CL25 antibody) VH: QVQLVQSGAEVKKPGASVKVSCKASGYTFTSYGLSWVRQATGQGLEWMGEIYPGSGNTYYNEKFKGRVTMTRNTSISTAYMELSSLRSEDTAVYYCARYDYLGSSYGFDYWGAGTTVTVSS VL: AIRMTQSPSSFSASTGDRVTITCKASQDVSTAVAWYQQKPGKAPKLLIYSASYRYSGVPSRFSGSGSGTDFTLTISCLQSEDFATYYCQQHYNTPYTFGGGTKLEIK
Response: 0.00111

Prompt: Look up koff for this binder: CL25 (chimeric antibody, murine VH/VL with human IgG1/kappa constant regions) (antibody, V domains shown, also called Chimeric antibody CL25) VH: QVQLQQSGAELARPGASVKLSCRASGYTFTSYGLSWVKQRTGQGLEWIGEIYPGSGNTYYNEKFKGKATLTADKSSSTAYMELRSLTSEDSAVYFCARYDYLGSSYGFDYWGQGTTLTVSS VL: DIVMTQSHKFMSTSVGDRVSITCKASQDVSTAVAWYQQKPGQSPKLLIYSASYRYNGVPDRFTGSGSGTDFTFTISSVQAEDLAVYYCQQHYNTPYTFGGGTKLEIKR
Response: 0.000394
